- tested-target: Replicative DNA helicase DnaB (Mycobacterium tuberculosis, UniProt P9WMR3)
- Sequence (P9WMR3 1-399, added parts left off): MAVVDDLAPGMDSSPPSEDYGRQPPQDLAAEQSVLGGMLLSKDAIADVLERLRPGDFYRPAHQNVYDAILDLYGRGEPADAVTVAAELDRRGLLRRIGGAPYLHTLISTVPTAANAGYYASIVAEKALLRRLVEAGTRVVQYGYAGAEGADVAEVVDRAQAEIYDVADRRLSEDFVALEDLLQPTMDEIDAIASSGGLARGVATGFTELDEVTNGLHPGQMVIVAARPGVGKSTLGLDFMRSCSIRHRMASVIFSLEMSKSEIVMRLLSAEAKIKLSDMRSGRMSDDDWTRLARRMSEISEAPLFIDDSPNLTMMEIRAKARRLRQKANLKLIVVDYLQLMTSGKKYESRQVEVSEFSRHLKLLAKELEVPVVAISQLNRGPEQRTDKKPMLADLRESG
- assay-method-text: DnaB intein splicing inhibitors, dose response, biochemical, cell-free fluorescence (AID 449749)
- Type: functional
The source made the active and inactive calls. Rule as the data show it: actives have a measured AC50 and inactives only a lower limit.
Known AC50 of a selection of compounds

compound: O=C(N/N=C1\C/C(=N\NC(=O)c2ccncc2)c2ccccc21)c1ccncc1
AC50: 6.09 µM (active)
//
compound: COC(=O)c1ccccc1OC(=O)c1ccc(Br)o1
AC50: 12.8 µM (active)
//
compound: Cc1onc(-c2c(Cl)cccc2Cl)c1C(=O)N1C(C)CCCC1C (configuration not stated)
AC50: 118 µM (active)
//
compound: CCc1nnc(NC(=O)c2nc(S(=O)(=O)Cc3ccc(C)cc3)ncc2Cl)s1
AC50: 5.97 µM (active)
//
compound: COc1cc(N)c(Cc2nccc3cc(OC)c(OC)cc23)cc1OC
AC50: > 380 µM (inactive)
//
compound: CN1C(=O)C(Cc2ccc3c(c2)OCO3)C(=O)N(C)C1=O
AC50: 35.3 µM (active)
//
compound: COc1ccccc1-c1cc(C(F)(F)F)nc(S(=O)(=O)CCCC(=O)NCc2ccc(F)cc2)n1
AC50: 5.72 µM (active)
